Source listed as patent US20060166900A1.

test: Stability indicating HPLC assay and related substances on storage (Example 3); format: physicochemical; details: 1 month, 60° C.
reported metric: Known Related Substances HN67003 (%)
Please give a number only; it is taken to be in %.

Field: example entries. Status: answers known.
| compound | Known Related Substances HN67003 / % |
| --- | --- |
| CN1CCC23c4c5ccc(O)c4OC2C(OC2OC(C(=O)O)C(O)C(O)C2O)C=CC3C1C5.CN1CCC23c4c5ccc(O)c4OC2C(OC2OC(C(=O)O)C(O)C(O)C2O)C=CC3C1C5.O=S(=O)(O)O (stereo not shown) [Morphine-6-glucuronide sulphate] | 2.73 |
| CN1CC[C@]23c4c5ccc(O)c4O[C@H]2[C@@H](O[C@@H]2O[C@H](C(=O)O)[C@@H](O)[C@H](O)[C@H]2O)C=C[C@H]3[C@H]1C5.Cl [Morphine-6-glucuronide hydrochloride] | 3.55 |
| CN1CCC23c4c5ccc(O)c4OC2C(OC2OC(C(=O)O)C(O)C(O)C2O)C=CC3C1C5.CN1CCC23c4c5ccc(O)c4OC2C(OC2OC(C(=O)O)C(O)C(O)C2O)C=CC3C1C5.O=C(O)C=CC(=O)O (stereo not shown) [Morphine-6-glucuronide fumarate] | 0.97 |

Task item: Give the measured Known Related Substances HN67003 of Br.CN1CC[C@]23c4c5ccc(O)c4O[C@H]2[C@@H](O[C@@H]2O[C@H](C(=O)O)[C@@H](O)[C@H](O)[C@H]2O)C=C[C@H]3[C@H]1C5 [Morphine-6-glucuronide hydrobromide] .
Reply: 0.10

---

assay: Colour of solution by visible spectrophotometry on storage (Example 3); type: physicochemical; conditions: 3 months, 25° C./60% RH; 5% w/v solution in water
reported metric: Colour (Abs@420 nm)
Please give a number only; it is taken to be in Abs@420 nm.

| compound | Colour (Abs@420 nm) |
| --- | --- |
| CN1CCC23c4c5ccc(O)c4OC2C(OC2OC(C(=O)O)C(O)C(O)C2O)C=CC3C1C5.CN1CCC23c4c5ccc(O)c4OC2C(OC2OC(C(=O)O)C(O)C(O)C2O)C=CC3C1C5.O=S(=O)(O)O (stereo not shown) [Morphine-6-glucuronide sulphate] | 0.406 |
| CN1CCC23c4c5ccc(O)c4OC2C(OC2OC(C(=O)O)C(O)C(O)C2O)C=CC3C1C5.O=P(O)(O)O (stereo not shown) [Morphine-6-glucuronide phosphate] | 0.098 |
| Br.CN1CC[C@]23c4c5ccc(O)c4O[C@H]2[C@@H](O[C@@H]2O[C@H](C(=O)O)[C@@H](O)[C@H](O)[C@H]2O)C=C[C@H]3[C@H]1C5 [Morphine-6-glucuronide hydrobromide] | 0.046 |
| CN1CCC23c4c5ccc(O)c4OC2C(OC2OC(C(=O)O)C(O)C(O)C2O)C=CC3C1C5.CN1CCC23c4c5ccc(O)c4OC2C(OC2OC(C(=O)O)C(O)C(O)C2O)C=CC3C1C5.O=C(O)C=CC(=O)O (stereo not shown) [Morphine-6-glucuronide fumarate] | 0.141 |
| CN1CC[C@]23c4c5ccc(O)c4O[C@H]2[C@@H](O[C@@H]2O[C@H](C(=O)O)[C@@H](O)[C@H](O)[C@H]2O)C=C[C@H]3[C@H]1C5 [Morphine-6-glucuronide base, morphine-6-β-D-glucuronide] | 0.132 |

Task item: Give the measured Colour of CN1CC[C@]23c4c5ccc(O)c4O[C@H]2[C@@H](O[C@@H]2O[C@H](C(=O)O)[C@@H](O)[C@H](O)[C@H]2O)C=C[C@H]3[C@H]1C5.Cl [Morphine-6-glucuronide hydrochloride] .
Reply: 0.253

Task item: Give the measured Colour of CN1CCC23c4c5ccc(O)c4OC2C(OC2OC(C(=O)O)C(O)C(O)C2O)C=CC3C1C5.CN1CCC23c4c5ccc(O)c4OC2C(OC2OC(C(=O)O)C(O)C(O)C2O)C=CC3C1C5.O=C(O)C=CC(=O)O (stereo not shown) [Morphine-6-glucuronide maleate] .
Reply: 0.209
